The measured values listed here are drawn from BindingDB's records for doi:10.1021/jm00039a015.

# Target Entity: Platelet-activating factor receptor (Oryctolagus cuniculus)
# Assay Overview: Antagonist activity against platelet activating factor (PAF) receptor in rabbit platelet membranes using [3H]C18-PAF as radioligand
Observable: Ki (nM)

Compound	Units Symbol	Recorded Measurement
CN(C)C(=O)n1cc(C(=O)[C@@H]2CSC(c3cccnc3)N2)c2ccc(-c3cccnc3)cc21 (some centres undefined)	nM	40
O=C(c1c[nH]c2ccccc12)[C@@H]1CS[C@H](c2cccnc2)N1C(=O)C(F)(F)F	nM	1640
O=C(Nc1cccc(Cl)c1)c1ccn2c1CSC2c1cccnc1 (centres undefined) [RP-52770]	nM	274
CN(C(=O)n1cc(C(=O)[C@@H]2CSC(c3cccnc3)N2)c2ccccc21)c1ccccc1 (some centres undefined)	nM	31

A: CCN(CC)C(=O)n1cc(C(=O)[C@@H]2CSC(c3cccnc3)N2)c2ccccc21 (some centres undefined)
B: O=CN1C(c2cccnc2)SC[C@H]1C(=O)c1c[nH]c2ccccc12 (some centres undefined)
C: CCOC(=O)n1cc(C(=O)[C@@H]2CSC(c3cccnc3)N2)c2ccccc21 (some centres undefined)
List items by Ki in falling order. List the labels in the requested order.
B, C, A

###

# Target Entity: Platelet-activating factor receptor (Oryctolagus cuniculus)
# Assay Overview: Antagonist activity against platelet activating factor (PAF) receptor in rabbit platelet membranes using [3H]C18-PAF as radioligand
Observable: Ki (nM)

Compound	Units Symbol	Ki
CN(C)C(=O)n1cc(C(=O)[C@@H]2CSC(c3cccnc3)N2)c2ccc(Br)cc21 (some centres undefined)	nM	0.6
O=C([C@@H]1CSC(c2cccnc2)N1)n1ccc2cccc(OCc3ccccc3)c21 (some centres undefined)	nM	385
CCS(=O)(=O)n1cc(C(=O)[C@@H]2CSC(c3cccnc3)N2)c2ccc(OCc3ccccc3)cc21 (some centres undefined)	nM	8.1
O=C(c1c[nH]c2ccccc12)[C@@H]1CS[C@@H](c2cccnc2)N1C(=O)C(F)(F)F	nM	7100
Cc1ccc2c(c1)c(C(=O)[C@@H]1CSC(c3cccnc3)N1)c(C)n2C(=O)OC(C)(C)C (some centres undefined)	nM	77

1: Cc1ccc2c(c1)c(C(=O)[C@@H]1CSC(c3cccnc3)N1)c(C)n2C(=O)N(C)C (some centres undefined)
2: O=C(c1c[nH]c2cc(OCc3ccc(F)cc3)ccc12)[C@@H]1CSC(c2cccnc2)N1 (some centres undefined)
For the two items 1 and 2 , which reports the higher Ki value? Field: selected label. Fill in the label of the entry you choose.
1

###

# Target Entity: Platelet-activating factor receptor (Oryctolagus cuniculus)
# Assay Overview: Antagonist activity against platelet activating factor (PAF) receptor in rabbit platelet membranes using [3H]C18-PAF as radioligand
pKi: −log10 of the molar value.
Observable: pKi

Illustrative cases are given below, each with its answer.
Compound	Target Entity	pKi
O=C(C1CSC(c2cccnc2)N1)n1ccc2c(Cl)cccc21 (stereo not given)	Platelet-activating factor receptor (Oryctolagus cuniculus)	7.48
O=C(c1c[nH]c2cc(OCc3cccnc3)ccc12)[C@@H]1CSC(c2cccnc2)N1 (stereo not given in full)	Platelet-activating factor receptor (Oryctolagus cuniculus)	7.43
O=C(c1cn(C(=O)N2CCOCC2)c2cc(OCc3ccccc3)ccc12)[C@@H]1CSC(c2cccnc2)N1 (stereo not given in full)	Platelet-activating factor receptor (Oryctolagus cuniculus)	8.00

P: CC(C)(C)C(=O)n1cc(C(=O)[C@@H]2CSC(c3cccnc3)N2)c2ccccc21 (stereo not given in full)
Q: CC(C)(C)OC(=O)N1C(c2cccnc2)SC[C@H]1C(=O)c1c[nH]c2ccccc12 (stereo not given in full)
For the two items P and Q , which reports the higher pKi value? Field: selected label. Fill in the label of the entry you choose.
P

###

# Target Entity: Platelet-activating factor receptor (Oryctolagus cuniculus)
# Assay Overview: Antagonist activity against platelet activating factor (PAF) receptor in rabbit platelet membranes using [3H]C18-PAF as radioligand
Observable: Ki (nM)

Illustrative cases are given below, each with its answer.
Compound	Target Entity	Units Symbol	Ki
COCCOc1ccc2c(C(=O)[C@@H]3CSC(c4cccnc4)N3)cn(C(=O)N(C)C)c2c1 (some centres undefined)	Platelet-activating factor receptor (Oryctolagus cuniculus)	nM	3
O=C(c1cn(Cc2ccccc2)c2ccccc12)[C@@H]1CSC(c2cccnc2)N1 (some centres undefined)	Platelet-activating factor receptor (Oryctolagus cuniculus)	nM	49
Cc1ccc2c(c1)c(C(=O)[C@@H]1CSC(c3cccnc3)N1)c(C)n2C(=O)N1CCOCC1 (some centres undefined)	Platelet-activating factor receptor (Oryctolagus cuniculus)	nM	36
O=C(C1CSC(c2cccnc2)N1)n1ccc2cc(OCc3ccccc3)ccc21 (centres undefined)	Platelet-activating factor receptor (Oryctolagus cuniculus)	nM	15
CN(C)C(=O)n1cc(C(=O)[C@@H]2CSC(c3cccnc3)N2)c2ccccc21 (some centres undefined)	Platelet-activating factor receptor (Oryctolagus cuniculus)	nM	0.8
COc1cc2c(C(=O)[C@@H]3CSC(c4cccnc4)N3)cn(C(=O)N(C)C)c2cc1OC (some centres undefined)	Platelet-activating factor receptor (Oryctolagus cuniculus)	nM	10
CN(C)C(=O)n1cc(C(=O)[C@@H]2CSC(c3cccnc3)N2)c2ccc(C#Cc3ccccc3)cc21 (some centres undefined)	Platelet-activating factor receptor (Oryctolagus cuniculus)	nM	1.3
COc1cc2[nH]cc(C(=O)[C@@H]3CSC(c4cccnc4)N3)c2cc1OC (some centres undefined)	Platelet-activating factor receptor (Oryctolagus cuniculus)	nM	87

1: O=C(c1c[nH]c2c(OCc3ccccc3)cccc12)[C@@H]1CSC(c2cccnc2)N1 (some centres undefined)
2: CN(C)C(=O)n1cc(C(=O)[C@@H]2CSC(c3cccnc3)N2)c2ccc(-c3ccccc3)cc21 (some centres undefined)
Which of these two has the smaller recorded Ki: 1 or 2 ? Field: selected label. Fill in the label of the entry you choose.
1

###

# Target Entity: Platelet-activating factor receptor (Oryctolagus cuniculus)
# Assay Overview: Antagonist activity against platelet activating factor (PAF) receptor in rabbit platelet membranes using [3H]C18-PAF as radioligand
pKi: −log10 of the molar value.
Observable: pKi

Illustrative cases are given below, each with its answer.
Molecule	Recorded Measurement
O=C(c1cn(C(=O)N2CCOCC2)c2ccccc12)[C@@H]1CSC(c2cccnc2)N1 (some centres not stated)	8.82
COC(=O)CCn1cc(C(=O)[C@@H]2CSC(c3cccnc3)N2)c2ccccc21 (some centres not stated)	8.34
O=C(c1ccccc1)c1ccc2ccn(C(=O)[C@@H]3CSC(c4cccnc4)N3)c2c1 (some centres not stated)	7.02

P: O=C([C@@H]1CSC(c2cccnc2)N1)n1ccc2ccc(OCc3ccccc3)cc21 (some centres not stated)
Q: O=C(c1c[nH]c2cccc(OCc3ccccc3)c12)[C@@H]1CSC(c2cccnc2)N1 (some centres not stated)
For the two items P and Q , which reports the higher pKi value? Field: selected label. Fill in the label of the entry you choose.
Q

A: Cc1c(C(=O)[C@@H]2CSC(c3cccnc3)N2)c2ccccc2n1C(=O)N1CCOCC1 (some centres not stated)
B: CN(C)C(=O)n1cc(C(=O)[C@@H]2CSC(c3cccnc3)N2)c2ccc(OCc3ccc(F)cc3)cc21 (some centres not stated)
For the two items A and B , which reports the higher pKi value? Field: selected label. Fill in the label of the entry you choose.
B

a: Cc1ccc2c(C(=O)[C@@H]3CSC(c4cccnc4)N3)cn(C(=O)OC(C)(C)C)c2c1 (some centres not stated)
b: CC(C)(C)OC(=O)n1cc(C(=O)[C@@H]2CSC(c3cccnc3)N2)c2ccccc21 (some centres not stated)
c: CN(C)C(=O)n1cc(C(=O)[C@@H]2CSC(c3cccnc3)N2)c2cccc(OCc3ccccc3)c21 (some centres not stated)
d: CC(=O)N1C(c2cccnc2)SC[C@H]1C(=O)c1c[nH]c2ccccc12 (some centres not stated)
List items by pKi in falling order. List the labels in the requested order.
b, a, c, d
(b: 9.00, a: 8.59, c: 7.85, d: 4.75)

a: O=C(c1cn(C(=O)c2ccc(Cl)cc2)c2ccccc12)[C@@H]1CSC(c2cccnc2)N1 (some centres not stated)
b: CN(C)C(=O)n1cc(C(=O)[C@@H]2CSC(c3cccnc3)N2)c2ccc(C(=O)c3ccccc3)cc21 (some centres not stated)
Which of these two has the smaller recorded pKi: a or b ? Field: selected label. Fill in the label of the entry you choose.
a

###

# Target Entity: Platelet-activating factor receptor (Oryctolagus cuniculus)
# Assay Overview: Antagonist activity against platelet activating factor (PAF) receptor in rabbit platelet membranes using [3H]C18-PAF as radioligand
pKi: −log10 of the molar value.
Observable: pKi

Illustrative cases are given below, each with its answer.
Compound	pKi
CN(C)C(=O)n1cc(C(=O)[C@@H]2CSC(c3cccnc3)N2)c2ccc(Cl)cc21 (some centres not stated)	9.00
Cc1nnc2n1-c1sc3c(c1C(c1ccccc1Cl)=NC2)CC(C(=O)N1CCOCC1)C3 (configuration not stated)	7.54
CC(C)(C)NC(=O)n1cc(C(=O)[C@@H]2CSC(c3cccnc3)N2)c2ccccc21 (some centres not stated)	8.06
CN(C)C(=O)n1cc(C(=O)[C@@H]2CSC(c3cccnc3)N2)c2ccc(-c3ccc(F)cc3)cc21 (some centres not stated)	8.04
O=C(c1c[nH]c2cc(OCc3ccccc3)ccc12)[C@@H]1CSC(c2cccnc2)N1 (some centres not stated)	8.80
CCOC(=O)Cn1cc(C(=O)[C@@H]2CSC(c3cccnc3)N2)c2ccccc21 (some centres not stated)	8.92
Cc1[nH]c2ccccc2c1C(=O)[C@@H]1CSC(c2cccnc2)N1 (some centres not stated)	7.64
CCn1cc(C(=O)[C@@H]2CSC(c3cccnc3)N2)c2ccccc21 (some centres not stated)	8.27

P: COc1ccc2c(C(=O)[C@@H]3CSC(c4cccnc4)N3)cn(C(=O)OC(C)(C)C)c2c1 (some centres not stated)
Q: Cc1[nH]c2cc(OCc3ccccc3)ccc2c1C(=O)[C@@H]1CSC(c2cccnc2)N1 (some centres not stated)
R: COc1cc(C(=O)c2cccc(NC(=O)[C@@H]3CSC(c4cccnc4)N3)c2)cc(OC)c1OC (some centres not stated)
# rank by pKi, ascending (min first) List the labels in the requested order.
Q, P, R
